experimental-target: Peroxisome proliferator-activated receptor alpha (Mus musculus)
procedure-text: Agonist activity at Gal4-fused mouse PPAR-alpha ligand binding domain expressed in CHO-K1 cells assessed as receptor transactivation incubated for 24 to 48 hrs by luciferase reporter gene assay relative to control
Assay type: cell-based
assay-context: time lower 24.0 hrs, time upper […]
Quick rule for you: Emax at 8% or higher means TRUE, lower means FALSE.

Some solved entries appear below for comparison.
INSERT INTO results (compound, experimental_target, assigned_category) VALUES
  ('Cc1cc(CC(=O)O)cc(CN2CCN(c3nc4ccc(C(F)(F)F)cc4s3)[C@@H](CC(C)C)C2)c1', 'Peroxisome proliferator-activated receptor alpha (Mus musculus)', 'FALSE'),
  ('C[C@@H]1CN(c2nc3ccc(Cl)cc3s2)CCN1CCOc1cc(CC(=O)O)ccc1Cl', 'Peroxisome proliferator-activated receptor alpha (Mus musculus)', 'TRUE'),
  ('CC[C@H]1CN(Cc2cc(C)cc(CC(=O)O)c2)CCN1c1nc2ccc(C(F)(F)F)cc2s1', 'Peroxisome proliferator-activated receptor alpha (Mus musculus)', 'TRUE'),
  ('C[C@H]1CN(c2nc3ccc(C(F)(F)F)cc3s2)CCN1CCOc1cc(CC(=O)O)ccc1Cl', 'Peroxisome proliferator-activated receptor alpha (Mus musculus)', 'FALSE'),
  ('C[C@@H]1CN(CCOc2cc(CC(=O)O)ccc2Cl)CCN1c1nc2ccc(Cl)cc2s1', 'Peroxisome proliferator-activated receptor alpha (Mus musculus)', 'TRUE'),
  ('Cc1cc(CC(=O)O)cc(CN2CCN(c3nc4ccc(C(F)(F)F)cc4s3)C[C@@H]2C)c1', 'Peroxisome proliferator-activated receptor alpha (Mus musculus)', 'FALSE');

// query Form field: Emax at least 8%? Entry: CC1CN(c2nc3ccc(Cl)cc3s2)CCC1CCOc1cc(CC(=O)O)ccc1Cl (stereo not drawn)
// result TRUE

* * *

AUC overview
procedure-text: AUC in rat at 1 mg/kg, po
Assay type: ADME, organism-based
Design: dose 1 mg/kg, route po
assay-context: in vivo

// query Return AUC for the following compound: CC[C@H]1CN(c2nc3ccc(C(F)(F)F)cc3s2)CCN1CCOc1cc(CC(=O)O)ccc1Cl
// result 151 ng·h/mL

* * *

experimental-target: Peroxisome proliferator-activated receptor delta (Homo sapiens)
procedure-text: Agonist activity at Gal4-fused human PPAR-delta ligand binding domain expressed in CHO-K1 cells assessed as receptor transactivation incubated for 24 to 48 hrs by luciferase reporter gene assay relative to control
Type: cell-based
assay-context: time lower 24.0 hrs, time upper […]
Emax overview
Param answer (str): number followed by unit.

INSERT INTO results (molecule, experimental_target, value_type, observed_value) VALUES
  ('Cc1ccc(CC(=O)O)cc1OCCN1CCN(c2nc3ccc(Cl)cc3s2)CC1', 'Peroxisome proliferator-activated receptor delta (Homo sapiens)', 'Emax', '14.4%'),
  ('Cc1cc(CC(=O)O)cc(CN2CCN(c3nc4ccc(C(F)(F)F)cc4s3)[C@H](C(C)C)C2)c1', 'Peroxisome proliferator-activated receptor delta (Homo sapiens)', 'Emax', '13.1%'),
  ('Cc1cc(CC(=O)O)cc(CN2CCN(c3nc4ccc(C(F)(F)F)cc4s3)[C@H](C)C2)c1', 'Peroxisome proliferator-activated receptor delta (Homo sapiens)', 'Emax', '13.5%');

// query Return Emax for the following molecule: Cc1cc(CC(=O)O)cc(CN2CCN(c3nc4ccc(C(F)(F)F)cc4s3)C[C@H]2C)c1
// result 15.5%

// query Return Emax for the following molecule: CC(C)C[C@H]1CN(c2nc3ccc(Cl)cc3s2)CCC1CCOc1cc(CC(=O)O)ccc1Cl (stereo not given in full)
// result 23.2%

// query Return Emax for the following molecule: Cc1cc(CC(=O)O)cc(CN2CCN(c3nc4ccc(C(F)(F)F)cc4s3)[C@@H](C(C)C)C2)c1
// result 18.6%

// query Return Emax for the following molecule: Cc1ccc(CC(=O)O)cc1OCCC1CCN(c2nc3ccc(Cl)cc3s2)CC1
// result 16.2%

// query Return Emax for the following molecule: C[C@H]1CN(c2nc3ccc(Cl)cc3s2)CCN1CCOc1cc(CC(=O)O)ccc1Cl
// result 15.5%

// query Return Emax for the following molecule: Cc1cc(CC(=O)O)cc(CN2CCN(c3nc4ccc(C(F)(F)F)cc4s3)[C@@H](C)C2)c1
// result 14%

// query Return Emax for the following molecule: C[C@@H]1CN(c2nc3ccc(Cl)cc3s2)CCN1CCOc1cc(CC(=O)O)ccc1Cl
// result 19.8%

// query Return Emax for the following molecule: Cc1cc(CC(=O)O)cc(CN2CCN(c3nc4ccc(C(F)(F)F)cc4s3)C[C@@H]2C)c1
// result 19.5%
